Molecular target: Substance-K receptor (Homo sapiens, UniProt P21452)
Sequence (P21452 whole entry): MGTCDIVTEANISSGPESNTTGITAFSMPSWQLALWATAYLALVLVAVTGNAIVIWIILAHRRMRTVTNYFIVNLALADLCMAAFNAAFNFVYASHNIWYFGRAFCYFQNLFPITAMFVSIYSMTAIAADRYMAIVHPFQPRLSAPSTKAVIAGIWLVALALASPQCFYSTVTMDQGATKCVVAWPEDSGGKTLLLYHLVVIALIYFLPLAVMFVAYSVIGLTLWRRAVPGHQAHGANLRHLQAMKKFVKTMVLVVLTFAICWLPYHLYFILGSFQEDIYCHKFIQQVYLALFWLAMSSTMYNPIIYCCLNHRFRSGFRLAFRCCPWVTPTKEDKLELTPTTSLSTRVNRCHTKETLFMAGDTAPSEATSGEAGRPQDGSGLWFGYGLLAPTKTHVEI
Test: Inhibition of cloned human NK2 (Neurokinin 2) receptor, stably expressed in chinese hamster ovary (CHO) cells was determined
Type: cell-based
experimental endpoint: IC50 (µM)

IC50 reading for CN(Cc1ccccc1)C(=O)[C@H](Cc1c[nH]c2ccccc12)NC(=O)N1CCC2(C=Cc3ccccc32)CC1 : 0.018

// IC50 lookup, compound = CSN1CC2(CCN(C(=O)N[C@@H](CCc3ccccc3)C(=O)N(C)Cc3ccccc3)CC2)c2ccccc21 , result: 0.166

// recorded IC50 for CSN1CC2(CCN(C(=O)N[C@@H](Cc3c[nH]c4ccccc34)C(=O)N(C)Cc3cc(C)cc(C)c3)CC2)c2ccccc21 : 1.4

I. CSN1CC2(CCN(C(=O)N[C@@H](Cc3c[nH]c4ccccc34)C(=O)OCc3ccccc3)CC2)c2ccccc21
II. CSN1CC2(CCN(C(=O)N[C@H](Cc3c[nH]c4ccccc34)C(=O)N(C)Cc3ccccc3)CC2)c2ccccc21
III. CC(=O)NC1(c2ccccc2)CCN(C(=O)N[C@@H](Cc2c[nH]c3ccccc23)C(=O)N(C)Cc2ccccc2)CC1
IV. CN(Cc1ccccc1)C(=O)[C@H](Cc1c[nH]c2ccccc12)NC(=O)N1CCC2(CCc3ccccc32)CC1
Task: rank_up(items): orders items by reported IC50 in ascending numerical order. Give the labels in the order specified.
Result: IV, II, III, I

---

Target: Substance-P receptor (Homo sapiens, UniProt P25103)
Sequence (P25103 whole entry): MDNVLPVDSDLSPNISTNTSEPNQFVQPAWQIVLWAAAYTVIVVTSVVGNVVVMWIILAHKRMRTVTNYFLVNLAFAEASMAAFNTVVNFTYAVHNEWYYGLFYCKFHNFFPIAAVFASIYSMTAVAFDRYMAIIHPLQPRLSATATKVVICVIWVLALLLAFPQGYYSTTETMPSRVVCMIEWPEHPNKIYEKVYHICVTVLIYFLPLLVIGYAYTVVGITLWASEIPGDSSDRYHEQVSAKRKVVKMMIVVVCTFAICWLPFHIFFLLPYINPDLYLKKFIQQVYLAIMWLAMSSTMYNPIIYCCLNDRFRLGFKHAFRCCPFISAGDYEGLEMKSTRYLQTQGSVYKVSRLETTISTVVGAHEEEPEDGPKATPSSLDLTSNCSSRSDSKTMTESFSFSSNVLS
Experiment: Inhibition of cloned human NK1 (Neurokinin 1) receptor, stably expressed in chinese hamster ovary (CHO) cells was determined
experimental endpoint: IC50 (µM)

Per the record, CN(Cc1ccccc1)C(=O)[C@H](Cc1c[nH]c2ccccc12)NC(=O)N1CCC2(C=Cc3ccccc32)CC1 has IC50 of 0.068

A. CSN1CC2(CCN(C(=O)N[C@H](Cc3c[nH]c4ccccc34)C(=O)N(C)Cc3ccccc3)CC2)c2ccccc21
B. CC(=O)NC1(c2ccccc2)CCN(C(=O)N[C@@H](Cc2c[nH]c3ccccc23)C(=O)N(C)Cc2ccccc2)CC1
Task: Could you tell me which of A and B has the lower IC50 reading? Please indicate the selected item by its label.
Result: B

---

Biological target: Substance-K receptor (Homo sapiens, UniProt P21452)
Assay: Inhibition of cloned human NK2 (Neurokinin 2) receptor, stably expressed in chinese hamster ovary (CHO) cells was determined
pIC50: −log10 of the molar value.
experimental endpoint: pIC50

1. O=C(Nc1ccccc1)[C@H](Cc1c[nH]c2ccccc12)NC(=O)N1CCC2(CCc3ccccc32)CC1
2. O=C(NCc1ccccc1)[C@H](Cc1c[nH]c2ccccc12)NC(=O)N1CCC2(CCc3ccccc32)CC1
3. CSN1CC2(CCN(C(=O)N[C@@H](Cc3c[nH]c4ccccc34)C(=O)N(C)Cc3cc(C(F)(F)F)cc(C(F)(F)F)c3)CC2)c2ccccc21
4. CC(=O)NC1(c2ccccc2)CCN(CC[C@H](CN(C)C(=O)c2ccccc2)c2ccc(Cl)c(Cl)c2)CC1 [SAREDUTANT]
Task: List the compounds shown above again, sorted by falling pIC50 values. Please express your ranking as an ordered list of the labels.
Result: 4, 2, 1, 3
(4: 9.89, 2: 7.85, 1: 5.68, 3: 5.38)
